Target: T1, human ACTH 1-39 (human, not fully specified; N-terminal biotin in the ELISA and HTRF binding assays (p-1487, p-1488); 125I on Tyr23 in Example 9 (p-1542); unlabelled in SPR. Letters unchanged.)
T1 peptide: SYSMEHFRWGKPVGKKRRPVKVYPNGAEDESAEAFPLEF
Assay: cell-based or functional assay
IC50, ACTH-induced cAMP, MC5R cells values by entry
propertyName: IC50, ACTH-induced cAMP, MC5R cells (nM)

| binder | result |
| --- | --- |
| Ab3 (antibody, V domains shown) VH: QSLEESGGRLVTPGTPLTLTCTVSGSSLSNFDMIWVRQAPGKGLESIGIIYDFGSTYYASWAKGRFTISRTSSTTVDLKIISPTIEDTATYFCVKGVSNIWGQGTLVTVSS VL: DVVMTQTPASVEAAVGGTVTIKCQASEDISSNLAWYQQKLGQPPKLLIYSASTLASGVPSRFKGSGSGTEFTLAISDLECADAATYYCQSYDGSSSSSYGIGFGGGTEVVVKR | 1100 |
| Ab1 (antibody, V domains shown, Full-length rabbit/human chimeric antibody, HEK-293) VH: QSVKESGGRLVTPGTPLTLTCTVSGFSLSNYDMIWVRQAPGKGLESIGMIYDDGDTYYASWAKGRFTISKTSTTVDLKIISPTTEDTATYFCVKGVSNHWGPGTLVTVSS VL: DVVMTQTPASVEAAVGGTVTIKCQASQSISSYLAWYQQKPGQPPKLLIYSASTLASGVPSRFKGRGSGTEFTLTISDLECADAATYYCQSYDGSSGSSYGVGFGGGTEVVVKR | 1100 |
| Ab6 (antibody, V domains shown) VH: QSVEESGGRLVTPGTPLTLTCTVSGFSLTDYAMSWVRQAPGEGLEWIGIISDSGSTYYASWAKGRFTFSKTSTTVDLRITSPTTEDTATYFCAREPEYGYDEYGDWVSDLWGPGTLVTVSS VL: DIVMTQTPASVEAAVGGAVTIKCQATQSIGNNLAWYQQKPGQPPKLLIYRASTLASGVPSRFKGSGSGTEFTLTISDLECADAATYYCQSYYYSSSITYHNAFGGGTEVVVKR | 1000 |
| Ab7 (antibody, V domains shown, Full-length rabbit/human chimeric antibody, HEK-293) VH: QSVEESGGRLVTPGTPLTLTCTVSGFSLSSYAMSWVRQAPGEGLEWIGIISDSGSTYYASWAKGRFTISKTSTTVDLRITSPTTEDTATYFCAREPEYGYDDYGDWVSDLWGQGTLVTVSS VL: DIVMTQTPASVEAAVGGTVTIKCQASQSISDYLSWYQQKPGQPPKLLIYRASTLASGVPSRFKGSGSGTQFTLTISDLECADAATYYCQSYYYSSSITYRNAFGGGTEVVVKR | 1100 |
| Ab11 (antibody, V domains shown) VH: QSLEESGGRLVTPGTSLTLTCTASGFSLSAYDILWVRQAPGKGLESIGMMYDDGDTYYATWAKGRFIISRTSTTMDLKIISPTTEDTATYFCVKGVSNIWGQGTLVTVSS VL: DIVMTQIPASVEAAVGGTVTIKCQASQSIDSSLAWYQQKPGQPPKLLIYSASTLASGVPSRFKGSGSGTEFTLTIGDLECADAATYYCQSYDGSSSSYYGIGFGGGTEVVVKR | 4200 |
